System: OVCAR-3 ovarian
Assay: NCI tumour cell line growth inhibition, 48 h
Each record here notes measured TGI.

Use the examples below as a reference point.
COC1=CC(=O)c2ccccc2C1(C)C1=NC(C)(C)CO1 (centres undefined) ... > 100 µM
COc1ccc(-n2cc(-c3ccc(OC)c(OC)c3)nc2SCc2ccccc2)cc1Cl ... > 100 µM
C=C1CC(C/C=C(\C)CC2CC(=C)C(=O)O2)OC1=O (centres undefined) ... > 100 µM
CCCCCc1c(C)[nH]c(/C=c2\[nH]/c(=C3/C=c4ccccc4=N3)cc2OC)c1C ... 0.699 µM
N#Cc1c(Oc2ccc(F)c(NC(=O)Cc3cccc(C(F)(F)F)c3)c2)ccc2nc(NC(=O)C3CC3)sc12 ... > 100 µM

Notebook: `Cn1c(N)c(-c2c3ccccc3nc3ccccc23)c(=O)n(C)c1=O` , TGI read as > 100 µM

// TGI value for FC(F)(F)C1(C(F)(F)F)C2CCC3(CC(F)(F)C(F)(F)S3)C1C2 (centres undefined) : 35.9 µM

In plain terms, `O=C1c2ccccc2C(=O)c2sc(Nc3ccc(Cl)c(Cl)c3)nc21` has a documented TGI of 6.3 µM

---

System: KM20L2 colon
Assay: NCI tumour cell line growth inhibition, 48 h
measured_parameter: TGI

CC[O-].CC[O-].O=C([CH-]C(=O)c1ccccc1)c1ccccc1.O=C([CH-]C(=O)c1ccccc1)c1ccccc1.[Ti+4] ... > 100 µM
CC(C)Cc1cccc(C(C)C)c1NC(=O)CCC(=O)N/N=C1\C(=N/NC(=O)CCC(=O)Nc2c(C(C)C)cccc2C(C)C)C(c2ccc3c(c2)OCO3)Oc2ccccc21 (stereo not given) ... > 100 µM

Record COC(=O)C(=O)C1CCCCC(C2=NC3NN=C(N)N3C2=O)C1=O (stereo not given) ; system KM20L2 colon; TGI = > 100 µM

Here COC(=O)/C(=N\O)C(C(=O)C=C(C)C)C(=O)C(=O)Nc1ccccc1C (stereo not given) was tested on KM20L2 colon, and its TGI came to > 100 µM

Case Nc1ccc(C(=O)NN2C(=O)C(Cl)C2c2cccc([N+](=O)[O-])c2)cc1 (stereo not given) , KM20L2 colon, TGI recorded as 43.6 µM

Tested on KM20L2 colon, the item `CCCCCn1cnc2c1S(=O)(=O)N(C)C(NC(=O)c1ccccc1)=N2` showed TGI equal to > 100 µM

Assay KM20L2 colon, sample CCOC(=O)C1CC/C(=C(/C#N)C(=O)OC)N1 (stereo not given) , TGI read: > 100 µM

Measured TGI (KM20L2 colon), entry `CP(C)C.[Ag][I]` : > 100 µM

Form field, TGI with KM20L2 colon, item `O=C(/N=C/c1c(O)c2ccccc2oc1=O)NC1CCCCC1` : > 100 µM

The value of TGI recorded for `COc1ccc(/C(Cl)=C/c2ccc(Cl)c(Cl)c2)cc1` when tested on KM20L2 colon reads 63.7 µM

---

# reported TGI; entries follow
System: CCRF-CEM leukemia
Test: NCI tumour cell line growth inhibition, 48 h

Look over these answered cases.
C=CCC1=CC2(OC)C(=O)C(OC)(OC)C1C1C(OC)(OC)C(=O)C(OC)=CC12CC=C (stereo not drawn) ... > 100 µM
CO[C@@]12CC(=O)/C(=C(O)\C=C\c3ccccc3)C(=O)[C@]1(OC)Cc1ccccc1O2 ... 84.6 µM
CCc1ccccc1-n1c(N)c(C#N)c(-c2ccc(OC)c(OC)c2)c(C#N)c1=O ... > 100 µM
COc1ccc(C2S/C(=C\c3cccc(O)c3)C(=O)N2NC(=O)Cc2ccccc2)cc1 (stereo not drawn) ... > 100 µM
COc1ccc2[nH]c3c(C)c4cnccc4c(C)c3c2c1 ... > 10 µM

// TGI value for `CCCc1ccc(OCC(=O)N/N=C/c2c(-c3ccccc3)[nH]c3ccccc23)cc1` : 40.1 µM

TGI for `CC(C)c1cccc(C(C)C)c1NC1=CC(=O)C(=O)c2ccccc21` is > 100 µM

GET /value?item= COCC12CC(CC1=O)C1C2ON2c3ccccc3C(=O)C12c1ccccc1 (stereo not drawn) &field=TGI returns > 100 µM
